- MEASUREMENT_NOTES: CelltiterGlo viability cell assay
- Type: cell-based
- RUN_CONDITIONS: human, MDA-MB-436 breast cancer cells, MDA MB436, 6 day, 1 uM; read-out: viability Replicate 3

[
  {
    "MOLECULE": "COc1cc(OC)cc(-c2noc(N3CCN(C)C4(CCN(c5ccnc(C)c5)CC4)C3)n2)c1 [MRK-740]",
    "UNIT_OF_MEASURE": "%",
    "viability at 6 day, 1 µM": 111
  }
]

====

- MEASUREMENT_NOTES: CelltiterGlo viability cell assay
- Assay type: cell-based
- RUN_CONDITIONS: human, SKMM2 cells (multiple myeloma line), SKMM2, 6 day, 0.01 uM; read-out: viability Average

[
  {
    "ENTRY_SMILES": "COc1cc(OC)cc(-c2noc(N3CCN(C)C4(CCN(c5ccnc(C)c5)CC4)C3)n2)c1",
    "viability at 6 day, 0.01 µM": "99.7%"
  }
]

====

- MEASUREMENT_NOTES: CelltiterGlo viability cell assay
- Format: cell-based
- RUN_CONDITIONS: human, HCC1143 breast cancer cells, HCC1143, 6 day, 0.03 uM; read-out: viability Average

[
  {
    "COMPOUND": "COc1cc(OC)cc(-c2noc(N3CCN(C)C4(CCN(c5ccnc(C)c5)CC4)C3)n2)c1 [MRK-740]",
    "viability at 6 day, 0.03 µM [%]": 101
  }
]

====

- MEASUREMENT_NOTES: CelltiterGlo viability cell assay
- Format: cell-based
- RUN_CONDITIONS: human, HCC1143 breast cancer cells, HCC1143, 6 day, 1 uM; read-out: viability Replicate 3

[
  {
    "ENTRY_SMILES": "COc1cc(OC)cc(-c2noc(N3CCN(C)C4(CCN(c5ccnc(C)c5)CC4)C3)n2)c1",
    "viability at 6 day, 1 µM [%]": 113
  }
]

====

- MEASUREMENT_NOTES: CelltiterGlo viability cell assay
- Type: cell-based
- RUN_CONDITIONS: human, HCC1806 breast cancer cells, HCC1806, 6 day, 0.1 uM; read-out: viability Replicate 2

[
  {
    "ENTRY_SMILES": "COc1cc(OC)cc(-c2noc(N3CCN(C)C4(CCN(c5ccnc(C)c5)CC4)C3)n2)c1",
    "UNIT_OF_MEASURE": "%",
    "viability at 6 day, 0.1 µM": 106
  }
]

====

- MEASUREMENT_NOTES: CelltiterGlo viability cell assay
- Type: cell-based
- RUN_CONDITIONS: human, MDA-MB-436 breast cancer cells, MDA MB436, 6 day, 0.3 uM; read-out: viability Replicate 2

[
  {
    "COMPOUND": "COc1cc(OC)cc(-c2noc(N3CCN(C)C4(CCN(c5ccnc(C)c5)CC4)C3)n2)c1 [MRK-740]",
    "UNIT_OF_MEASURE": "%",
    "viability at 6 day, 0.3 µM": 105
  }
]

====

- MEASUREMENT_NOTES: CelltiterGlo viability cell assay
- Type: cell-based
- RUN_CONDITIONS: human, SKMM2 multiple myeloma cells, SKMM2, 3 day, 1 uM; read-out: viability Replicate 1
- Text: Supplementary Figure 13. […] Viability of (a) Multiple Myeloma lines and (b) Breast Cancer cell lines following 3 or 6 days treatment with […] manufacturer’s instructions as described in the Supplementary methods. Data are normalized to DMSO control. N=3 biological replicates, +/- SEM. Source data are provided as a Source Data […] CelltiterGlo viability cell assay […]

[
  {
    "ENTRY_SMILES": "COc1cc(OC)cc(-c2noc(N3CCN(C)C4(CCN(c5ccnc(C)c5)CC4)C3)n2)c1",
    "viability at 3 day, 1 µM [%]": 99.9
  }
]

====

- SYSTEM: PRDM9 (Homo sapiens, UniProt Q9NQV7)
- Construct: PRDM9 (amino acids: 195–415)
- MEASUREMENT_NOTES: MOA determination: IC50 at varying SAM or peptide concentrations (SPA)
- Assay type: biochemical
- RUN_CONDITIONS: [H3 1-25]/Km 2.5; Figure 2e; average of replicates; read-out: Average IC50
- Sequence (Q9NQV7 195-415): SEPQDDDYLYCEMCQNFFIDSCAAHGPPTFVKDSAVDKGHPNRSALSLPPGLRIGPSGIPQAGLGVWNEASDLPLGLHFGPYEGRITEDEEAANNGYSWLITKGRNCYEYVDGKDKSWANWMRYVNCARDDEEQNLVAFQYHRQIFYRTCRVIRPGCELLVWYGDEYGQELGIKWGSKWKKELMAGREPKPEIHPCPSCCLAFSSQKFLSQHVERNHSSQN
pIC50: −log10 of the molar value.

[
  {
    "ENTRY_SMILES": "COc1cc(OC)cc(-c2noc(N3CCN(C)C4(CCN(c5ccnc(C)c5)CC4)C3)n2)c1",
    "pIC50": 7.03
  }
]

====

- MEASUREMENT_NOTES: CelltiterGlo viability cell assay
- Type: cell-based
- RUN_CONDITIONS: human, HCC1806 breast cancer cells, HCC1806, 6 day, 0.3 uM; read-out: viability Average
- Description: Supplementary Figure 13. […] Viability of (a) Multiple Myeloma lines and (b) Breast Cancer cell lines following 3 or 6 days treatment with […] manufacturer’s instructions as described in the Supplementary methods. Data are normalized to DMSO control. N=3 biological replicates, +/- SEM. Source data are provided as a Source Data […] CelltiterGlo viability cell assay […]

[
  {
    "COMPOUND": "COc1cc(OC)cc(-c2noc(N3CCN(C)C4(CCN(c5ccnc(C)c5)CC4)C3)n2)c1 [MRK-740]",
    "UNIT_OF_MEASURE": "%",
    "viability at 6 day, 0.3 µM": 109
  }
]

====

- MEASUREMENT_NOTES: CelltiterGlo viability cell assay
- Format: cell-based
- RUN_CONDITIONS: human, HCC1143 breast cancer cells, HCC1143, 6 day, 30 uM; read-out: viability Replicate 2
TEST_READOUT: viability at 6 day, 30 µM (%)

[
  {
    "ENTRY_SMILES": "COc1cc(OC)cc(-c2noc(N3CCN(C)C4(CCN(c5ccnc(C)c5)CC4)C3)n2)c1",
    "MEAS_VALUE": 18.4
  }
]

====

Listing of recorded IC50 by entry.
- SYSTEM: PRDM9 (Homo sapiens, UniProt Q9NQV7)
- MEASUREMENT_NOTES: PRDM9 cellular assay: H3K4me3 of exogenous H3-GFP in HEK293T cells (western blot)
- Format: cell-based
- RUN_CONDITIONS: H3-GFP and PRDM9-FLAG co-transfected, 20 h of treatment, read-out: IC50, PRDM9-dependent trimethylation of ectopic H3K4
- Sequence (Q9NQV7 whole entry): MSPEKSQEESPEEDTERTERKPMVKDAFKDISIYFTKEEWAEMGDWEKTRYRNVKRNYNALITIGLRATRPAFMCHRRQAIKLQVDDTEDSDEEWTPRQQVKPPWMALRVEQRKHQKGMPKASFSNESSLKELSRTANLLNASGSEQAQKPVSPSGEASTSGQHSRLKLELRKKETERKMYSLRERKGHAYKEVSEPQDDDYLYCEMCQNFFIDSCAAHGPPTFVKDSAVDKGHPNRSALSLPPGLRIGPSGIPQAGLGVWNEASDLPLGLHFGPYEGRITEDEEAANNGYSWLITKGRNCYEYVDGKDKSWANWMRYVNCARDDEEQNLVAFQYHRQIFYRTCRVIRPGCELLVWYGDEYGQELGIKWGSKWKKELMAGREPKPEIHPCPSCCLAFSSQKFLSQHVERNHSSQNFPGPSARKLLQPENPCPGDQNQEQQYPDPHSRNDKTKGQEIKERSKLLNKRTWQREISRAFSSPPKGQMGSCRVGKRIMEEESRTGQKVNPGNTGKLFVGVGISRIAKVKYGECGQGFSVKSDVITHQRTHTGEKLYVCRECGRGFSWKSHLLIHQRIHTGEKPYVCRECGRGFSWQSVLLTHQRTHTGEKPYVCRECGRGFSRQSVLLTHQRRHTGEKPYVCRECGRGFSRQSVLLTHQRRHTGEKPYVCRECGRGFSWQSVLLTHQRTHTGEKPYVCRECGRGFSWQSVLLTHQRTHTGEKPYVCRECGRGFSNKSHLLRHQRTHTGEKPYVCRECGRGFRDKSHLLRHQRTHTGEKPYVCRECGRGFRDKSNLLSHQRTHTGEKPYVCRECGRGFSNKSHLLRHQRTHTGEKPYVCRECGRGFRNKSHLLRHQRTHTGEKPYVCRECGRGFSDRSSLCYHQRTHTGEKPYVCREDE

[
  {
    "ENTRY_SMILES": "COc1cc(OC)cc(-c2noc(N3CCN(C)C4(CCN(c5ccnc(C)c5)CC4)C3)n2)c1",
    "INEQUALITY_SYMBOL": "=",
    "IC50 (nM)": 800
  },
  {
    "ENTRY_SMILES": "COc1cc(OC)cc(-c2noc(N3CCN(C)C4(CCN(c5ccccc5)CC4)C3)n2)c1",
    "INEQUALITY_SYMBOL": ">",
    "IC50 (nM)": 10000
  }
]

====

- MEASUREMENT_NOTES: CelltiterGlo viability cell assay
- Format: cell-based
- RUN_CONDITIONS: human, MDA-MB-436 breast cancer cells, MDA MB436, 6 day, 30 uM; read-out: viability Replicate 3

[
  {
    "ENTRY_SMILES": "COc1cc(OC)cc(-c2noc(N3CCN(C)C4(CCN(c5ccnc(C)c5)CC4)C3)n2)c1",
    "viability at 6 day, 30 µM [%]": 36.5
  }
]

====

- MEASUREMENT_NOTES: CelltiterGlo viability cell assay
- Type: cell-based
- RUN_CONDITIONS: human, MDA-MB-436 breast cancer cells, MDA MB436, 3 day, 30 uM; read-out: viability Average

[
  {
    "COMPOUND": "COc1cc(OC)cc(-c2noc(N3CCN(C)C4(CCN(c5ccnc(C)c5)CC4)C3)n2)c1 [MRK-740]",
    "viability at 3 day, 30 µM": "51.5%"
  }
]

====

- MEASUREMENT_NOTES: CelltiterGlo viability cell assay
- Assay type: cell-based
- RUN_CONDITIONS: human, MDA-MB-436 breast cancer cells, MDA MB436, 3 day, 3 uM; read-out: viability Average

[
  {
    "COMPOUND": "COc1cc(OC)cc(-c2noc(N3CCN(C)C4(CCN(c5ccnc(C)c5)CC4)C3)n2)c1 [MRK-740]",
    "viability at 3 day, 3 µM": "104%"
  }
]

====

- MEASUREMENT_NOTES: CelltiterGlo viability cell assay
- Format: cell-based
- RUN_CONDITIONS: human, SKMM2 cells (multiple myeloma line), SKMM2, 3 day, 9.5 uM; read-out: viability Replicate 1
TEST_READOUT: viability at 3 day, 9.5 µM

[
  {
    "ENTRY_SMILES": "COc1cc(OC)cc(-c2noc(N3CCN(C)C4(CCN(c5ccnc(C)c5)CC4)C3)n2)c1",
    "MEAS_VALUE": "95.7%"
  }
]
